System: L1210 leukemia ip in BDF1 mice, survival T/C
Assay: NCI In Vivo Anticancer Drug Screen. Data for tumor model L1210 Leukemia (intraperitoneal) in B6D2F1 (BDF1) mice
Conditions: endpoint: mean survival time; dose: 400.0 mg/kg/injection; schedule: Q01DX001 (ip); vehicle: saline; higher = longer survival
Inconclusive results and toxic doses are left out.
I'd appreciate it if you could supply T/C values for the items below.

Incoming: Which T/C is reported for this compound? O=C(CNC(=O)c1ccccc1)Nc1ccc([N+](=O)[O-])cc1
Outgoing: 94 % of control

Incoming: Also, CCOP(=O)(O)Cc1c(Cl)c(Cl)c(CP(=O)(O)OCC)c(Cl)c1Cl please.
Outgoing: 107 % of control

Incoming: Also, Nc1nc(=O)n(C2CCCO2)cc1Br (stereo unspecified) please.
Outgoing: 87 % of control

Incoming: Also, CC/C(I)=C(/CC)S(=O)(=O)c1ccc(C)cc1 please.
Outgoing: 111 % of control

Incoming: Also, CN(C(=O)c1ccccc1C(=O)N(C)c1ccccc1)c1ccccc1 please.
Outgoing: 97 % of control

Incoming: Also, O=S(=O)(Cl)c1cccc2cc3ccccc3cc12 please.
Outgoing: 98 % of control

Incoming: Also, O=[N+]([O-])c1ccc(N2CCN=N2)cc1 please.
Outgoing: 111 % of control

Incoming: Also, Cn1c(=N)ccn(C2OC(CO)C(O)C2O)c1=O (stereo unspecified) (tested in a mixture with another compound) please.
Outgoing: 107 % of control

Incoming: Also, Cn1c(C2=CC(=O)c3ccccc3C2=O)c(C2=CC(=O)c3ccccc3C2=O)c2ccccc21 please.
Outgoing: 102 % of control

Incoming: Also, O=c1[nH]cccc1CCc1ccccc1 please.
Outgoing: 111 % of control

Incoming: Also, CC1CC([O-])=N/[N+]1=C\c1ccccc1 (stereo unspecified) please.
Outgoing: 97 % of control

* * *

Test system: L1210 leukemia ip in BDF1 mice, survival T/C
Assay: NCI In Vivo Anticancer Drug Screen. Data for tumor model L1210 Leukemia (intraperitoneal) in B6D2F1 (BDF1) mice
Settings: endpoint: mean survival time; dose: 400.0 mg/kg/injection; schedule: Q01DX009 (ip); vehicle: saline with Tween-80; higher = longer survival
Toxic doses and inconclusive results are not listed.
measure: T/C

Incoming: Which T/C is reported for this compound? O=C(O)CNC(=O)Nc1ccccc1
Outgoing: 91 % of control

Incoming: Also, CCCCOc1cc([N+](=O)[O-])ccc1CO please.
Outgoing: 98 % of control

Incoming: Also, OCc1cc2ccccc2[nH]1 please.
Outgoing: 101 % of control

Incoming: Also, CC(C(=O)c1ccc(-c2ccccc2)cc1)C(Cl)c1ccccc1 (configuration not stated) please.
Outgoing: 97 % of control

Incoming: Also, O=c1cc(-c2ccccc2)ss1 please.
Outgoing: 96 % of control

Incoming: Also, NC(=NC1CCC(C2CCC(N)CC2)CC1)C(N)=NC1CCC(C2CCC(N)CC2)CC1 (configuration not stated) please.
Outgoing: 98 % of control

Incoming: Also, CCCCOC(=O)C1CCCC1=O (configuration not stated) please.
Outgoing: 95 % of control

Incoming: Also, CC(C)(C)/[N+]([O-])=[N+](\[O-])C(C)(C)C (tested in a mixture with another compound) please.
Outgoing: 90 % of control

Incoming: Also, O=C(NCCCl)N1C(=O)NC(=O)C1(c1ccccc1)c1ccccc1 please.
Outgoing: 96 % of control

Incoming: Also, Cc1ccc(S(=O)(=O)Nc2ccc3ncsc3c2[N+](=O)[O-])cc1 please.
Outgoing: 103 % of control

Incoming: Also, CC(=O)CC(=O)C(F)(F)F.CC(=O)CC(=O)C(F)(F)F.CC(=O)CC(=O)C(F)(F)F.[Rh] please.
Outgoing: 96 % of control

Incoming: Also, CC(=O)Nc1ccc(OCCOC(=O)Nc2c(C)cccc2C)cc1 please.
Outgoing: 94 % of control
